target-entity: HLA-A*0201 (Homo sapiens, UniProt P04439, D140Y/D185E/D98H/E176V/E277Q/G131W/G231S/I119V/I121R/I166T/I218V/L300P/L318F/N151K/N90K/P208A/P217A/Q86G/Q94H/R138H/R169H/T345S)
assay-comment: Peptide-HLA binding (competition with Fl-labeled HLA-A*0201 binding peptide)
reported-conditions: peptide concentration needed to inhibit binding of FL-labeled reference peptide for 50%; read-out: IC50 (binding affinity for HLA-A*0201)
Ends that are not written are not given here.
// values below are reported IC50
value-type: IC50 (µM)

residue-sequence | measured
QHLCGSHLV [Peptide 4-12] | 9.12
YLVCGERGFFY [Peptide 16-26] | 8.59
HLCGSGLVEAL [Peptide 5-15, HLCGSGLVEAL] | 0.44
SHLVEALYL [Peptide 9-17] | 59.5
GSHLVEALYLV [Peptide 8-18] | 3.73
YLVCGERGFF [Peptide 16-25] | 2.3
ALYLVCGERGF [Peptide 14-24] | 2.26
HLVEALYLVC [Peptide 10-19] | 1.75
